The binders listed here are annotated with their DC viability (AUC).
test_system: T1, human TREM2 expressed on cells (human, UniProt Q9NZC2 19-230)
T1 sequence: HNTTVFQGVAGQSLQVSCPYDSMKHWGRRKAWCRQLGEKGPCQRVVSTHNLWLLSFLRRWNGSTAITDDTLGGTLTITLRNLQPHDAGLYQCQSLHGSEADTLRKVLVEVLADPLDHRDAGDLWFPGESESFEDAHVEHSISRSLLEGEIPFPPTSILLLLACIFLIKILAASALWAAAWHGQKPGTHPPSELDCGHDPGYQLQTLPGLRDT
experimental_details: cell-based or functional assay
Numeric only. Scale: AUC

Recorded DC viability (AUC), per entry:
>  <binder>
AL2p-55 (antibody, V domains shown, same VH/VL entries as AL2p-56; Fab and IgG formats under one id) VH: EVQLVQSGAEVKKPGSSVKVSCKASGYAFSSHWMNWVRQAPGQGLEWMGRIYPGEGDTNYAQKFHGRVTITADESTSTAYMELSSLRSEDTAVYYCARLLRNKPGESYAMDYWGQGTLVTVSS VL: DVVMTQTPLSLSVTPGQPASISCRTSQSLVHSNAYTYLHWYLQKPGQSPQLLIYKVSNRVSGVPDRFSGSGSGTDFTLKISRVEAEDVGVYYCSQSTRVPYTFGQGTKLEIK

>  <unit_label>
AUC

>  <DC viability (AUC)>
631000

$$$$
>  <binder>
AL2p-47 (antibody, V domains shown, Fab and IgG formats under one id (explicit huIgG1 is m97); also called AL2-47) VH: QVQLVQSGAEVKKPGSSVKVSCKASGYAFSSDWMNWVRQAPGQGLEWMGRIYPGEGDTNYARKFHGRVTITADESTSTAYMELSSLRSEDTAVYYCARLLRNKPGESYAMDYWGQGTLVTVSS VL: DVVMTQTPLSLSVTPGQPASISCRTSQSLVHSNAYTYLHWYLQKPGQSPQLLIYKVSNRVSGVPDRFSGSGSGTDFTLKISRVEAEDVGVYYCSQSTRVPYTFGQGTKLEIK

>  <unit_label>
AUC

>  <DC viability (AUC)>
771000

$$$$

Please turn your attention to the following entry.
Q. Reported DC viability (AUC), binder AL2p-50 (antibody, V domains shown, Fab and IgG formats under one id) VH: QVQLVQSGAEVKKPGSSVKVSCKASGYAFSSHWMNWVRQAPGQGLEWMGRIYPGEGDTNYAQKFHGRVTITADESTSTAYMELSSLRSEDTAVYYCARLLRNQPGESYAMDYWGQGTLVTVSS VL: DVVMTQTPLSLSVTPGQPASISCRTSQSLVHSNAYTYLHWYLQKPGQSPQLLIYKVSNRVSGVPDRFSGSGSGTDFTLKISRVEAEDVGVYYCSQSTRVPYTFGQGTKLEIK : ____
A. 286000
